Biological target: T1, human BCMA with a His tag (ACROBiosystems, Catalog No.: BCA-H522y) (human)
T1 construct: Bought His-tagged recombinant protein; also called huBCMA-His; Recombinant human BCMA
T1 chain: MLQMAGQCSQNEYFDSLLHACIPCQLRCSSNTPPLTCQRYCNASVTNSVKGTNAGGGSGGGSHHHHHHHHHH
Assay: SPR, Biacore T200
readout label: Kd (nM)
Quick reminder: number only, in nM, skip the unit.

Record summary for SCT-Aa04(m/m) (antibody, V domains shown, Full IgG format: mouse IgG1 heavy chain constant region, mouse kappa light chain constant region) VH: EVKLLQSGGGLVQPGGSLKLSCAASGIDFSRYWMSWVRRAPGKGLEWIGEINPDSSTINYAPSLKDKFIISRDNAKNTLYLQMSKVRSEDTALYYCASFYYDYDRGAAMDYWGQGTSVTVSS VL: DIVMTQSQKFMSTSVGDRVSVTCKASQNVGTNVAWYQQKPGQSPKALIYSASYRYSGVPDRFTGSGSGTDFTLTISNVQSEDLAEYFCQQYNSYPYTFGGGTKLEIK : reported Kd = 5.62

Next:
The binder identified as SCT-Aa18(h/h) (antibody, V domains shown, Full IgG format, chimeric: human IgG1 heavy chain constant region, human kappa light chain constant region) VH: EVQLQQSGPELVKPGASVKISCKASGYTFISYVMHWVKQKPGQGLEWIGYIIPYNDGTKYNEKFKGKATLTSDKSSSTAYMELSSLTSEDSAVYYCAKWGNWDEGTWFPYWGQGTLVTVSA VL: DVLMTQTPLSLPVSLGDQASFSCRSSQSIVHSDGNTYLEWYLQKPGQSPKLLIYKISNRFSGVPDRFSGSGSGTDFTLKISRVEAEDLGVYYCFQGSHVPWTFGGGTKLEIK registered its Kd at 12.2

Given item SCT-Aa08(h/h) (antibody, V domains shown, Full IgG format, chimeric: human IgG1 heavy chain constant region, human kappa light chain constant region) VH: QVQLQQSDAELVKPGASVKISCKVSGYTFIDHTIHWMKQRPEQGLEWIGYIYPRIDSSKCNEKFKDKATLTADKSSNTAYIQLNSLTSEDSAVYFCARWDYEGFDYWGQGTTLTVSS VL: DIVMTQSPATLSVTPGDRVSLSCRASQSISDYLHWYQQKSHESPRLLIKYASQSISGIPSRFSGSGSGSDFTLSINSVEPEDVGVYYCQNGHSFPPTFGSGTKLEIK , the value recorded as its Kd is 17.6
